- Assay Summary: AUC(0 to t) in Sprague-Dawley rat at 30 mg/kg, ig measured over 48 hrs by HPLC/MS analysis
- Format: ADME, organism-based
- Set-up: dose 30 mg/kg, time 48 hrs, route ig
- Assay Conditions: in vivo, po
Assay Readout: AUC(0-t) at 48 h
Note: a bare number is incomplete; add the unit.

Item under review: N#C[C@@]1(c2ccc3c(N)ncnn23)O[C@H](CO)[C@@H](O)[C@H]1O . Reported AUC(0-t) at 48 h?
28.7 µg·h/mL

* * *

- Assay Summary: Oral bioavailability in Sprague-Dawley rat at 30 mg/kg measured over 48 hrs by HPLC/MS analysis
- Assay type: ADME, organism-based
- Assay Conditions: in vivo
Assay Readout: bioavailability (%)
Write it as a number; the unit % goes unstated.

Item under review: N#C[C@@]1(c2ccc3c(N)ncnn23)O[C@H](CO)[C@@H](O)[C@H]1O . Reported bioavailability?
4.84
